Assay: molar heat capacity at constant pressure
Details: 234.15 K; 101.33 kPa; Crystal; Small sample (50 mg) DSC
Measured molar heat capacity at constant pressure by item
A number alone suffices; assume J/K/mol.

Field: example entries. Status: answers known.
>  <MOLECULE>
O[C@H]1[C@H](O)[C@@H](O)[C@H](O)[C@@H](O)[C@H]1O [cis-1,2,3,5-trans-4,6-cyclohexanehexol]

>  <MEASURE UNIT>
J/K/mol

>  <NUMERIC RESULT>
169.23

$$$$
>  <MOLECULE>
OC[C@@H](O)[C@@H](O)[C@H](O)[C@H](O)CO

>  <MEASURE UNIT>
J/K/mol

>  <NUMERIC RESULT>
182.94

$$$$
>  <MOLECULE>
OC[C@@H](O)C(O)[C@H](O)CO

>  <MEASURE UNIT>
J/K/mol

>  <NUMERIC RESULT>
157.71

$$$$

Asked: I am curious: what molar heat capacity at constant pressure value has been reported for OC[C@@H](O)[C@@H](O)CO ?
Given back: 130.84

Asked: I am curious: what molar heat capacity at constant pressure value has been reported for OC[C@H](O)C(O)[C@@H](O)CO [L-(-)-arabitol] ?
Given back: 162.2

Asked: I am curious: what molar heat capacity at constant pressure value has been reported for OC[C@@H](O)[C@H](O)[C@@H](O)CO ?
Given back: 164.01
